species on record: Rattus norvegicus; test: Open TG-GATES - Regimen: Daily Repeat; format: toxicity, organism-based, Sprague-Dawley; set-up: regimen Daily Repeat, gender Male, age 6 weeks; conditions: in vivo, po, 300 mg/kg, […], tissue Kidney, route gavage, dose level Middle, time 14 day
For each of the compounds below, state its KIDNEY_L.
One number for each entry, in g.

Sample records with KIDNEY_L:
compound="CCOc1ccc(NC(=O)CC(C)O)cc1 (stereo not given)" readout_value=1.4
compound=NC(N)=Nc1nc(CSCCC(N)=NS(N)(=O)=O)cs1 readout_value=1.2
compound="CCOC(=O)CCC(=O)O[C@H]1[C@H](O[C@@H]2[C@@H](C)[C@H](O[C@H]3C[C@@](C)(OC)[C@@H](O)[C@H](C)O3)[C@@H](C)C(=O)O[C@H](CC)[C@@](C)(O)[C@H](O)[C@@H](C)C(=O)[C@H](C)C[C@@]2(C)O)O[C@H](C)C[C@@H]1N(C)C [ERYTHROMYCIN ETHYLSUCCINATE]" readout_value=1.3
compound="COc1ccc2[nH]c([S+]([O-])Cc3ncc(C)c(OC)c3C)nc2c1 (stereo not given)" readout_value=1.3

Okay, next one:
Sample COC1=CC(=O)C[C@@H](C)[C@]12Oc1c(Cl)c(OC)cc(OC)c1C2=O — what was its KIDNEY_L?
1.3

====

organism: Rattus norvegicus; assay: Open TG-GATES - Regimen: Single; type: toxicity, organism-based, Sprague-Dawley; parameters: regimen Single, gender Male, age 6 weeks; settings: in vivo, po, 0 mg/kg, 9 h, tissue Blood, route gavage, dose level Control
assay.metric: RBC (x10_4/ul)
One number for each entry, in x10_4/ul.

Fill in RBC for each of the 4 compounds listed.
1. CN(C)CCN(Cc1cccs1)c1ccccn1
2. NC(N)=Nc1nc(CSCCC(N)=NS(N)(=O)=O)cs1
3. COC1=CC(=O)C[C@@H](C)[C@]12Oc1c(Cl)c(OC)cc(OC)c1C2=O
4. CC(C)OC(=O)C(C)(C)Oc1ccc(C(=O)c2ccc(Cl)cc2)cc1 [FENOFIBRATE]

1: 615.8; 2: 580.8; 3: 628.8; 4: 584.2

Fill in RBC for each of the 4 compounds listed.
1. COc1cc2c(c(OC)c1OC)-c1ccc(OC)c(=O)cc1[C@@H](NC(C)=O)CC2
2. CN(C)CCCN1c2ccccc2CCc2ccccc21
3. CC/C(=C(\c1ccccc1)c1ccc(OCCN(C)C)cc1)c1ccccc1
4. CCOc1ccc(NC(=O)CC(C)O)cc1 (stereo not given)

591.6
615.4
599.4
608.6

Fill in RBC for each of the 2 compounds listed.
1. CCCNC(=O)NS(=O)(=O)c1ccc(Cl)cc1 [CHLORPROPAMIDE]
2. Cc1ccc(C)c(OCCCC(C)(C)C(=O)O)c1

[607.8, 646.6]

====

organism: Rattus norvegicus; experiment: Open TG-GATES - Regimen: Single; type: toxicity, organism-based, Sprague-Dawley; set-up: regimen Single, gender Male, age 6 weeks; conditions: in vivo, po, 0 mg/kg, 24 h, tissue Blood, route gavage, dose level Control
For each of the compounds below, state its Hb.
Answers are plain numbers, in g/dL.

Sample records with Hb:
compound=COC1=CC(=O)C[C@@H](C)[C@]12Oc1c(Cl)c(OC)cc(OC)c1C2=O assay_metric=Hb quantity_unit=g/dL readout_value=13
compound=NNC(=O)c1ccncc1 assay_metric=Hb quantity_unit=g/dL readout_value=13.8
compound=Cc1ccc(C)c(OCCCC(C)(C)C(=O)O)c1 assay_metric=Hb quantity_unit=g/dL readout_value=13.5
compound="COc1ccc2[nH]c([S+]([O-])Cc3ncc(C)c(OC)c3C)nc2c1 (stereo not given)" assay_metric=Hb quantity_unit=g/dL readout_value=13.2
compound=CC/C(=C(\c1ccccc1)c1ccc(OCCN(C)C)cc1)c1ccccc1 assay_metric=Hb quantity_unit=g/dL readout_value=13
compound=CN(C)CCN(Cc1cccs1)c1ccccn1 assay_metric=Hb quantity_unit=g/dL readout_value=12.9
compound="CCCNC(=O)NS(=O)(=O)c1ccc(Cl)cc1 [CHLORPROPAMIDE]" assay_metric=Hb quantity_unit=g/dL readout_value=13
compound=NC(N)=Nc1nc(CSCCC(N)=NS(N)(=O)=O)cs1 assay_metric=Hb quantity_unit=g/dL readout_value=13.3

Fill in Hb for each of the 2 compounds listed.
1. COc1cc2c(c(OC)c1OC)-c1ccc(OC)c(=O)cc1[C@@H](NC(C)=O)CC2
2. CCOc1ccc(NC(=O)CC(C)O)cc1 (stereo not given)

[12.8, 13.4]

====

For each of the molecules below, state its BUN.
organism: Rattus norvegicus; experiment: Open TG-GATES - Regimen: Single; format: toxicity, organism-based, Sprague-Dawley; design: regimen Single, gender Male, age 6 weeks; settings: in vivo, po, 10 mg/kg, 9 h, tissue Plasma, route gavage, dose level Low
Please don't drop the unit; write it after the number.

Sample records with BUN:
molecule=CC1=C(/C=C/C(C)=C/C=C/C(C)=C/CO)C(C)(C)CCC1 assay_metric=BUN readout_value="9.6 mg/dL"
molecule="CC(C)OC(=O)C(C)(C)Oc1ccc(C(=O)c2ccc(Cl)cc2)cc1 [FENOFIBRATE]" assay_metric=BUN readout_value="7.4 mg/dL"
molecule=CN(C)CCCN1c2ccccc2CCc2ccccc21 assay_metric=BUN readout_value="7.4 mg/dL"
molecule=CN(C)CCCN1c2ccccc2CCc2ccc(Cl)cc21 assay_metric=BUN readout_value="10.4 mg/dL"

Sample CN(C)CCN(Cc1cccs1)c1ccccn1 — what was its BUN?
11.2 mg/dL

====

species on record: Rattus norvegicus; assay: Open TG-GATES - Regimen: Single; format: toxicity, organism-based, Sprague-Dawley; design: regimen Single, gender Male, age 6 weeks; conditions: in vivo, po, 30 mg/kg, 9 h, tissue Plasma, route gavage, dose level Middle
For each of the compounds below, state its TBIL.
Please don't drop the unit; write it after the number.

query_smiles=CN(C)CCCN1c2ccccc2CCc2ccc(Cl)cc21 readout_value="0.076 mg/dL"
query_smiles=CC1=C(/C=C/C(C)=C/C=C/C(C)=C/CO)C(C)(C)CCC1 readout_value="0.014 mg/dL"
query_smiles=CN(C)CCN(Cc1cccs1)c1ccccn1 readout_value="0.022 mg/dL"

Okay, next one:
Sample CN(C)CCCN1c2ccccc2CCc2ccccc21 — what was its TBIL?
0.06 mg/dL

====

organism: Rattus norvegicus; test: Open TG-GATES - Regimen: Single; assay type: toxicity, organism-based, Sprague-Dawley; set-up: regimen Single, gender Male, age 6 weeks; settings: in vivo, po, 100 mg/kg, 24 h, tissue Blood, route gavage, dose level Low
assay.metric: MCH (pg)
Answers are plain numbers, in pg.

Sample records with MCH:
compound="CCOC(=O)CCC(=O)O[C@H]1[C@H](O[C@@H]2[C@@H](C)[C@H](O[C@H]3C[C@@](C)(OC)[C@@H](O)[C@H](C)O3)[C@@H](C)C(=O)O[C@H](CC)[C@@](C)(O)[C@H](O)[C@@H](C)C(=O)[C@H](C)C[C@@]2(C)O)O[C@H](C)C[C@@H]1N(C)C [ERYTHROMYCIN ETHYLSUCCINATE]" readout_value=20.6
compound=COC1=CC(=O)C[C@@H](C)[C@]12Oc1c(Cl)c(OC)cc(OC)c1C2=O readout_value=21.5
compound="COc1ccc2[nH]c([S+]([O-])Cc3ncc(C)c(OC)c3C)nc2c1 (centres undefined)" readout_value=21.2

Okay, next one:
Sample NC(N)=Nc1nc(CSCCC(N)=NS(N)(=O)=O)cs1 — what was its MCH?
22.3

====

For each of the compounds below, state its MCV.
species on record: Rattus norvegicus; assay: Open TG-GATES - Regimen: Single; format: toxicity, organism-based, Sprague-Dawley; design: regimen Single, gender Male, age 6 weeks; settings: in vivo, po, 1000 mg/kg, 3 h, tissue Blood, route gavage, dose level High
One number for each entry, in fL.

compound=NC(N)=Nc1nc(CSCCC(N)=NS(N)(=O)=O)cs1 readout_value=59.8

Fill in MCV for each of the 3 compounds listed.
1. COC1=CC(=O)C[C@@H](C)[C@]12Oc1c(Cl)c(OC)cc(OC)c1C2=O
2. COc1ccc2[nH]c([S+]([O-])Cc3ncc(C)c(OC)c3C)nc2c1 (centres undefined)
3. CCOC(=O)CCC(=O)O[C@H]1[C@H](O[C@@H]2[C@@H](C)[C@H](O[C@H]3C[C@@](C)(OC)[C@@H](O)[C@H](C)O3)[C@@H](C)C(=O)O[C@H](CC)[C@@](C)(O)[C@H](O)[C@@H](C)C(=O)[C@H](C)C[C@@]2(C)O)O[C@H](C)C[C@@H]1N(C)C [ERYTHROMYCIN ETHYLSUCCINATE]

[63.7, 61.9, 61.8]
